Origin of measurements: PubChem BioAssay (EPA / NIEHS)

SYSTEM TESTED: Hypoxia-inducible factor 1-alpha (Homo sapiens) (UniProt Q16665)
Sequence (Q16665 whole entry, looked up): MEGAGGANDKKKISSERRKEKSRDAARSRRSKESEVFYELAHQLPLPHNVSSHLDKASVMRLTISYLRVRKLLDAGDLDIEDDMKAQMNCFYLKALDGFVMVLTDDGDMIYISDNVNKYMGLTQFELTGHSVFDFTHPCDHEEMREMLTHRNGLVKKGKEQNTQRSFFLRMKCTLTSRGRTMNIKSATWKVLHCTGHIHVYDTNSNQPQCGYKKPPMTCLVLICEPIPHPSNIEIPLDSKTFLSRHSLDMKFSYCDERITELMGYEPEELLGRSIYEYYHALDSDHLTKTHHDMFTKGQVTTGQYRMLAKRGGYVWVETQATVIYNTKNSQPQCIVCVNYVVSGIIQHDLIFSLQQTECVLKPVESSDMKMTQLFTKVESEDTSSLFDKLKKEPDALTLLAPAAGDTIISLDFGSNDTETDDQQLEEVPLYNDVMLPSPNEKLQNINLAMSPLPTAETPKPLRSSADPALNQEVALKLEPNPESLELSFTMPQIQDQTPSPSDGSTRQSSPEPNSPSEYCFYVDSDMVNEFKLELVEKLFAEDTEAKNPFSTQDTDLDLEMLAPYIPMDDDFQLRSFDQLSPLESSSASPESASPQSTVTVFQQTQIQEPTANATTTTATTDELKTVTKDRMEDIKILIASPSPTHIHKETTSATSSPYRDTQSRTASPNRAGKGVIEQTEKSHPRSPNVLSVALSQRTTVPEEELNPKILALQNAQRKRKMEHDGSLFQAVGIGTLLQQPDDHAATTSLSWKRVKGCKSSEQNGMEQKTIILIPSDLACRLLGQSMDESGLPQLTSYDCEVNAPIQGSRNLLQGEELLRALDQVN
TEST DESCRIPTION: ATG_HIF1a_CIS: Attagene CIS-FACTORIAL HepG2 Assay for human Hypoxia Inducible Factor 1 (HIF1A) (AID 2282951)
CONDITION LABEL: HepG2 Attagene cis-factorial HIF1a reporter transcription; actives raise or lower the signal
Activity calls are given as the source filed them. How the source made its calls: active means hit-call score of the fitted dose curve at least 0.9, where 1 is the maximum; inactive means score below 0.9.
Outcomes you can answer with include only these: active, inactive

Solved entries:
> print(dat)
                              line.notation  category.label
1                          Cc1cccc(N(C)C)c1        inactive
2  CCO[Si](CCC(F)(F)C(F)(F)C(F)(F)C(F)(F)C(F)(F)C(F)(F)F)(OCC)OCC        inactive
3      O=C(OCCOCCOCCOC(=O)c1ccccc1)c1ccccc1        inactive

Just curious, what result did "O=C(O)C(F)(F)C(F)(F)C(F)(F)C(F)(F)C(F)(F)C(F)(F)C(F)(F)C(F)(F)C(F)(F)C(F)(F)C(F)(F)C(F)(F)F" get here?
inactive

Follow-up entry: "CC/C=C\CCOC(=O)c1ccccc1"
inactive

Proceed to "O=C(O)C(F)(F)C(F)(F)C(F)(F)F"
inactive
